- METHOD_NOTES: Pharmacokinetics and oral bioavailability of NMT in mice (plasma NMT by HPLC)
- Assay type: in vivo, mouse
- APPLIED_CONDITIONS: male, ICR, mouse, iv, i.v. 0.5 mg/kg BW, plasma, read-out: AUC0–180min (converted)
ASSAY_METRIC: AUC(0-t)

Q: What does the data say about its AUC(0-t)? Entry: CNCCS(=O)(=O)O [NMT, N-Methyltaurine]
A: 900 ng·h/mL

---

- METHOD_NOTES: Pharmacokinetics and oral bioavailability of NMT in mice (plasma NMT by HPLC)
- Assay type: in vivo, mouse
- APPLIED_CONDITIONS: male, ICR, mouse, plasma, oral, 0.5 mg/kg, p.o. 0.5 mg/kg BW vs i.v. 0.5 mg/kg BW, read-out: bioavailability
ASSAY_METRIC: bioavailability (%)
The response must be a number in % with no trailing unit.

Q: What does the data say about its bioavailability? Entry: CNCCS(=O)(=O)O [NMT, N-Methyltaurine]
A: 96
